- System Under Test: L-lactate dehydrogenase (Plasmodium falciparum (isolate CDC / Honduras))
- Experiment: PfLDH activity inhibition – cell lysate, 3D7 strain, counter-screen for P. falciparum growth inhibition project (AID 2304);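 also: 0% = vehicle and 100% = reference inhibitor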
- Test Settings: P. falciparum 3D7 crude extract, LDH APAD/NBT absorbance; at 2 µM; active compounds read high
Readings of inhibition for the listed compounds
Write down the numeric answer in % and omit the unit.

Worked cases, answers included:
O=C(Nc1ccccc1O)C1CCN(c2ncnc3cc(-c4ccc(F)cc4)sc23)CC1	4
COc1cccc(C=Cc2nc(=O)c3ccccc3o2)c1OC	7
Cc1ccc(C(=O)Nc2cccc(CN3CCCN(Cc4ccc(O)cc4)CC3)c2)s1	-4
Cc1c[nH]c2cc(/C=C/C(=O)NC3CCC(CCN4CCc5ccc(C#N)cc5CC4)CC3)ccc12 (centres undefined)	-2
CCCC(=O)c1cnc2c(Oc3cc(Cl)ncn3)cccc2c1Nc1ccccc1C	6

Challenge: Give the measured inhibition for NC1CCCN(Cc2ccc(-c3ccc(-c4nc5ccc(F)cc5[nH]4)s3)cc2)C1 (centres undefined)
Response given: 1

Challenge: Consider the compound CN1CCC(N(Cc2ccc(-c3cnc(NCc4ccccc4)nc3)cc2)S(=O)(=O)c2ccccc2)CC1 and give its recorded inhibition.
Response given: 1

Challenge: Quickly give me recorded inhibition for O=C(NCC1COc2ccccc2O1)c1cnc2c(c1)nc(-c1cnc(-c3ccccc3)[nH]1)n2CCSCc1c(F)cccc1Cl (centres undefined)
Response given: 4

Challenge: Return value of inhibition for input O=C(Nc1cccc(CN2CCCN(Cc3ccccc3)CC2)c1)c1ccc(Cl)c(Cl)c1 , no commentary.
Response given: -6
